Values were extracted from ChEMBL document CHEMBL5058577.

Tested on: U2OS
Assay: Multiplex assay against U2OS
Assay type: toxicity, cell-based
Details: human, 12 h, 1 µM, compound concentration 1 uM, replicate 1
Reported Population Fragmented Nuclei (%) values are given for each entry in this list.
Report the figure in % without appending any unit label.

Look over these answered cases.
O=C(NCCNCC(O)COc1ccc(O)cc1)N1CCOCC1.O=C(NCCNCC(O)COc1ccc(O)cc1)N1CCOCC1.O=C(O)/C=C/C(=O)O (stereo not drawn) [XAMOTEROL FUMARATE]
27
Cc1cc(O)c(-c2ccc([C@@H](C)CN(C)C)cc2)c2c1[nH]c(=O)c1sccc12
38

// Cc1cc(-c2ccc3c(c2)CC[C@H]3N2CC3(CCN(C(=O)Cc4cn5cc(C)sc5n4)CC3)C2)ncn1 [PF-5190457] : Population Fragmented Nuclei (%) value = 24

GET /value?item= CC(C)C[C@H](CO)Nc1nc(S[C@@H](C)c2ccccc2)nc2nc(N)sc12 [AZD-8797] &field=Population Fragmented Nuclei (%) returns 20

Entry "CN1CCC(C(=O)c2cccc(NC(=O)c3c(F)cc(F)cc3F)n2)CC1" ; Population Fragmented Nuclei (%) = 20

Short answer for "Cc1nn(C)c2nc(NNC(=O)Nc3cc(Cl)nc(Cl)c3)cc(C(C)C)c12" : Population Fragmented Nuclei (%) was 23

Record summary for CCCCCCNC(=O)Nc1ccc(S(=O)(=O)Nc2ccc(CCNC[C@H](O)COc3ccc(O)cc3)cc2)cc1 [L-755507] : reported Population Fragmented Nuclei (%) = 22

Record COc1cc(Nc2ncc3c(n2)-c2ccc(Cl)cc2C(c2c(F)cccc2OC)=NC3)ccc1C(=O)O [ALISERTIB] , field Population Fragmented Nuclei (%): 23

* * *

Recorded Population Pyknosed Nuclei (%), one value per entry.
Tested on: HEK-293T
Assay: Multiplex assay against HEK293T
Type: toxicity, cell-based
Conditions: human, 24 h, 1 µM, compound concentration 1 uM, replicate 1
Non-standard residues stand in square brackets, D forms with d. Residues, ends and D or L forms follow the SMILES beside them.
Give just the numeric value; % need not be written.

Consider the worked cases shown below.
CC(C)C[C@@H]1NC(=O)[C@@H](C(C)C)NC(=O)[C@@H]2CCCN2C(=O)[C@@H](CC(=O)O)NC(=O)[C@@H](Cc2c[nH]c3ccccc23)NC1=O [BQ-123] (cyclo(L[dW][dD]P[dV]))
9
O=c1ccc2ccc(OCCCCN3CCN(c4cccc5sccc45)CC3)cc2[nH]1 [BREXPIPRAZOLE]
16
Cc1nn(C)c2nc(NNC(=O)Nc3cc(Cl)nc(Cl)c3)cc(C(C)C)c12
11
CN1CCN2c3ccccc3Cc3ccccc3C2C1.Cl (centres undefined) [MIANSERIN HYDROCHLORIDE]
10
CCCCC[C@H](O)/C=C/[C@H]1[C@H](O)CC(=O)[C@@H]1CCCCCCC(=O)O [ALPROSTADIL]
10
Cc1cc(O)c(-c2ccc([C@@H](C)CN(C)C)cc2)c2c1[nH]c(=O)c1sccc12
30
COCCn1c(C)c(C)s/c1=N\C(=O)C1C(C)(C)C1(C)C
11
CC(F)(F)CN1CCOc2c(nn(-c3ccccc3Cl)c2-c2ccc(Cl)cc2)C1=O
11

Okay, next one:
Record "COc1cc(OC2CCN(C(C)=O)CC2)ccc1C(=O)N1CCC(N2C(=O)OCc3ccccc32)CC1" , field Population Pyknosed Nuclei (%): 11
